# method_summary: Drug concentration at steady state in human at 0.25 mg, sc QD after 24 hrs
# Assay type: ADME, organism-based
# experimental_setup: in vivo, read-out: Css
Non-standard residues stand in square brackets, D forms with d. Residues, ends and D or L forms follow the SMILES beside them. dPhe(4-Cl) = N[C@H](Cc1ccc(Cl)cc1)C(=O)O; d2Nal = N[C@H](Cc1ccc2ccccc2c1)C(=O)O; dCit = NC(=O)NCCC[C@@H](N)C(=O)O; d3Pal = N[C@H](Cc1cccnc1)C(=O)O
reported_property: concentration at 24 h (nM)
Field format: number, assumed nM, no unit text.

// sample CC(=O)N[C@H](Cc1ccc2ccccc2c1)C(=O)N[C@H](Cc1ccc(Cl)cc1)C(=O)N[C@H](Cc1cccnc1)C(=O)N[C@@H](CO)C(=O)N[C@@H](Cc1ccc(O)cc1)C(=O)N[C@H](CCCNC(N)=O)C(=O)N[C@@H](CC(C)C)C(=O)N[C@@H](CCCNC(=N)N)C(=O)N1CCC[C@H]1C(=O)N[C@H](C)C(N)=O.CC(=O)O [CETRORELIX ACETATE] (Ac-[d2Nal][dPhe(4-Cl)][d3Pal]SY[dCit]LRP[dA]-NH2) , its concentration at 24 h was 16
